Target or test system: MCL-1 (Homo sapiens)
Sequence (Q07820 whole entry): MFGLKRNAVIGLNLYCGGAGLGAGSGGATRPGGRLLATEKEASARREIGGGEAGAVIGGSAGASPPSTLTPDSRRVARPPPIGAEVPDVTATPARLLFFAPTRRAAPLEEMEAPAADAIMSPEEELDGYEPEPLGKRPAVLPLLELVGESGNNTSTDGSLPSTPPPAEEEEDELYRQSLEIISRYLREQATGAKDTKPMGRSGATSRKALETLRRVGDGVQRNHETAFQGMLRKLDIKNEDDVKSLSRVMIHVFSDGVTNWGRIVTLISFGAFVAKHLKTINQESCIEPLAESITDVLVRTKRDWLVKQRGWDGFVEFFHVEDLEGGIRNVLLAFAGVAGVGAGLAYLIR
Test protocol: FP
Assay type: binding
Experimental conditions: FP MCL-1 Ki
Measured parameter: Ki (µM)

Exercise: Quick check: Ki on MCL-1 (Homo sapiens), item Cc1c(Cl)cccc1-c1c2n(c3ncnc(N[C@H](Cc4ccccc4)C(=O)O)c13)CCCC2 (single isomer, unassigned) [Compound 12b] ?
Key: 5.9

Exercise: Ok, now CCc1c(-c2cccc(Cl)c2C)c2c(N[C@H](Cc3ccccc3)C(=O)O)ncnc2n1C (single isomer, unassigned)
Key: 8.7

Exercise: Same question, CCc1c(-c2cccc(Cl)c2C)c2c(N[C@H](Cc3ccccc3)C(=O)O)ncnc2n1CCC1CCCC1 (single isomer, unassigned) [Compound 9b] this time
Key: 0.79

Exercise: And what about the compound `COc1ccccc1C[C@@H](Oc1ncnc2sc(-c3ccc(F)cc3)c(-c3ccc(OCCN4CCN(C)CC4)c(Cl)c3C)c12)C(=O)O` ?
Key: 0.014

I = CCc1c(-c2cccc(Cl)c2C)c2c(N[C@H](Cc3ccccc3)C(=O)O)ncnc2n1Cc1ccccc1 (single isomer, unassigned) [Compound 8a]
II = C=CCn1c(Br)c(-c2cccc(Cl)c2C)c2c(N[C@H](Cc3ccccc3)C(=O)O)ncnc21 (single isomer, unassigned)
Exercise: Task for the reader: decide whether I or II has the larger Ki. Answer = label.
Key: I

* * *

Target or test system: MCL-1 (Homo sapiens)
Test protocol: FP
Type: binding
Experimental conditions: read-out: FP MCL-1 inhibition at 50 μM, @50 μM, highest tested dose
Measured parameter: inhibition at 50 µM (%)

Exercise: I would be grateful if you could share the reported inhibition at 50 µM for `CCc1c(-c2cccc(Cl)c2C)c2c(N[C@H](Cc3ccccc3)C(=O)O)ncnc2n1C(C)C` .
Key: 67

Exercise: Thanks! And CCc1c(-c2cccc(Cl)c2C)c2c(N[C@H](Cc3ccccc3)C(=O)O)ncnc2n1CC(F)(F)F (single isomer, unassigned) ?
Key: 63

Exercise: Would you mind doing CCc1c(-c2cccc(Cl)c2C)c2c(N[C@H](Cc3ccccc3)C(=O)O)ncnc2n1C (single isomer, unassigned) as well?
Key: 65

Exercise: What about this compound? C=CCn1c(Br)c(-c2cccc(Cl)c2C)c2c(N[C@H](Cc3ccccc3)C(=O)O)ncnc21 (single isomer, unassigned)
Key: 66

* * *

Target or test system: MCL-1 (Homo sapiens)
Test protocol: QA
Format: binding
Experimental conditions: QA MCL-1 Ki
Measured parameter: Ki (nM)

Some entries whose results are on file:
Exercise: Requested read-out: Ki. Entry: `COc1ccccc1-c1nccc(COc2ccccc2C[C@@H](Oc2ncnc3c2c(-c2ccc(OCCN4CCN(C)CC4)c(Cl)c2C)c(-c2ccc(F)cc2)n3C)C(=O)O)n1`
Key: 0.64

Exercise: And what about the compound `COc1ccccc1-c1nccc(COc2ccccc2C[C@@H](Nc2nccc3sc(-c4ccc(F)cc4)c(-c4ccc(OCCN5CCN(C)CC5)c(Cl)c4C)c23)C(=O)O)n1` ?
Key: 1.2

Exercise: Lookup COc1ccccc1-c1nccc(COc2ccccc2C[C@@H](Nc2ncnc3sc(-c4ccc(F)cc4)c(-c4ccc(OCCN5CCN(C)CC5)c(Cl)c4C)c23)C(=O)O)n1 [Compound 16b]
Key: 0.303

Exercise: Same question, `COc1ccccc1-c1nccc(COc2ccccc2C[C@@H](Nc2ncnc3oc(-c4ccc(F)cc4)c(-c4ccc(OCCN5CCN(C)CC5)c(Cl)c4C)c23)C(=O)O)n1` this time
Key: 0.61

Exercise: Would you mind doing `COc1ccccc1-c1nccc(COc2ccccc2C[C@@H](Oc2ccnc3sc(-c4ccc(F)cc4)c(-c4ccc(OCCN5CCN(C)CC5)c(Cl)c4C)c23)C(=O)O)n1` as well?
Key: 0.1

Exercise: Then what about the compound `COc1ccccc1-c1nccc(COc2ccccc2C[C@@H](Oc2cccc3sc(-c4ccc(F)cc4)c(-c4ccc(OCCN5CCN(C)CC5)c(Cl)c4C)c23)C(=O)O)n1` ?
Key: 1.8

1 = COc1ccccc1-c1nccc(COc2ccccc2C[C@@H](Oc2cccc3c2c(-c2ccc(OCCN4CCN(C)CC4)c(Cl)c2C)c(-c2ccc(F)cc2)n3C)C(=O)O)n1
2 = COc1ccccc1-c1nccc(COc2ccccc2C[C@@H](Nc2ccnc3sc(-c4ccc(F)cc4)c(-c4ccc(OCCN5CCN(C)CC5)c(Cl)c4C)c23)C(=O)O)n1
3 = COc1ccccc1-c1nccc(COc2ccccc2C[C@@H](Oc2cccc3oc(-c4ccc(F)cc4)c(-c4ccc(OCCN5CCN(C)CC5)c(Cl)c4C)c23)C(=O)O)n1
4 = COc1ccccc1-c1nccc(COc2ccccc2C[C@@H](Oc2ncnc3oc(-c4ccc(F)cc4)c(-c4ccc(OCCN5CCN(C)CC5)c(Cl)c4C)c23)C(=O)O)n1
5 = COc1ccccc1-c1nccc(COc2ccccc2C[C@@H](Oc2nccc3nc(-c4ccc(F)cc4)c(-c4ccc(OCCN5CCN(C)CC5)c(Cl)c4C)n23)C(=O)O)n1
Exercise: List by increasing Ki. The reply should contain the labels ordered as requested.
Key: 4, 2, 3, 1, 5
(4: 0.036 nM, 2: 0.1 nM, 3: 1.3 nM, 1: 2.3 nM, 5: 8.2 nM)
